# MEASUREMENT DESCRIPTION: yeast display, Sf9 membrane polyspecificity reagent, FACS + sequencing; frameworks hold sequencing errors
OBSERVED PROPERTY: polyreactivity (PSR sort gate)

QVQLVESGGGLVQAGGSLRLSCAASGRIFKYYAMGWYRQAPGKERELVAAITSSGVSTYADSVKGRFTISRDNAKNTVYLQMNSLKPEDTAVSYCNAADERSQGWVGCDHWGQCTQVTVSS = low polyreactivity
QVQRVESGGGLVQAGGSLRLTCAASGYTSLWYGMGWSRQAPGKERDLVAAISSSGNTNYADSVKGRFTISRDNAKNTVYLQMNSLKPEDTAVYYCAVELKQVTPGLGYITLDYWGQGTQVTVSS = low polyreactivity
QVQLVESGGGLVQAGGSLRLSCAASGFTFPYYAMGWYRQAPGKERELVADITSGGGTNYADSVKGRFTISRDNAKNTVYLQMNSLKPEDTAVYYCAADAYHQGMDYWGQGTQVTVSS = low polyreactivity
QVQLVESGGGLVQAGGSLRLSCAASGTISASYAMGWYRQATGKERELVAAISSGGDTNYADSVKGRFTISRDNAKNTVYLQMNSLKPEDTAVYYCAADTDSDQGSEYDYWGQGTQVTVSS = low polyreactivity
QVQLVESGGGLVQAGGSLRLSCAASGRTFGPYAMGWYRQAPGKERELVAAITCSGGSTYYADSVKGRFTISRYNAKNTVYLQMNSLKPEDTAVYYCAPYHLSKLDYWGQGTQVTVSS = low polyreactivity

Value of measured polyreactivity (PSR sort gate) for the entry QVQLVESGGGLVQAGGSLRLSCAASGRIFYRNAMGWYRQAPGKERELVAAITWRGGSTYYADSVKGRFTISRDNAKNTVYLQMNSLKPEDTAVYYCNTRYGRIHWKANWPEYGYWGQGTQVTVSS : low polyreactivity

Value of measured polyreactivity (PSR sort gate) for the entry QVQLVESGGGLVQAGGSLRLSCAASGRTFPGYAMGWYRQAPGKERELVAAITSSGDDTYYADSVKGRFTISRDNAKNTVYLQMNSLKPEDTAVYYCRLFRRSADSSYDYEYWGQGTQVTVSS : low polyreactivity

Value of measured polyreactivity (PSR sort gate) for the entry QVQLVESGGGLVQAGGSLRLSCAASGIIFKYYAMGWYRQAPGKERELVAAITRSGGSTYYADSVKGRFTISRDNAKNTVYLQMYSLKPEDTAVYYCAAQTGYSYGITWQFTKYNYWGQGTQVTVSS : low polyreactivity

Value of measured polyreactivity (PSR sort gate) for the entry QVQLVESGGGLVQAGGSLRLSCAASGFIFLSYAMGWYRPAPGKERELVAAISGRGGSTYYADSVKGRFTISRDNAKNTVYLQMNSLKPEDTAVYYCAARLYRYNYDYWGQGTQVTVSS : high polyreactivity

Value of measured polyreactivity (PSR sort gate) for the entry HVQLVDSSGRVVQARCSLRLSCAASGSTFHDNAMGWYRQAPGKDRDLEAAISSGGRTNYADSVKGRFTISRDNAKNTVYLQMNCLKPEDTAVYYCAASFRRWYFYARHDYGYWGLGTQVTVSS : low polyreactivity

Value of measured polyreactivity (PSR sort gate) for the entry QVQLVESGGRLVQAGGILRLSCAASGLTFADNAMGWYRQAPGKERELVATISYSGGSTYYADSVKGRFTISRDNAKNTVYLQMNSLKPEDTAVYYCATVWETKAYSRIQWYYYWGQGTQVTVSS : low polyreactivity

Value of measured polyreactivity (PSR sort gate) for the entry QVQLEVSGGGLVQAGGSLLLSCAASGFTFYFYAMGWSRQATGTERELVAAISRSGSRTYYADSVKGRFTISRDNAKNTVYLQMNSLKPEDTAVYYCARVRPRGLYFVLHYDYWGQGTHVTVSS : high polyreactivity

Value of measured polyreactivity (PSR sort gate) for the entry QVQLVESGGGLVQAGGSLRLSCAASGYIFNLNAMGWYRQAPGKERELVAAITRSGGSTYYADSVKGRFTISRDNAKNTVYLQMNSQKPEDTAVYYCAARGPYYRPWYKYDYWGQGTQVTVSS : high polyreactivity

Value of measured polyreactivity (PSR sort gate) for the entry QVHLVESGGGLVQAGGSLRLSCAASGRTFPYNAMGGYRQAPGKERELVAAISSGGSTTYADSVKGRFTISRDNAKNTVYLQMNSQKPEDTAVYYCATKYQRRPYRYYYWGQGTQVTVSS : low polyreactivity

Value of measured polyreactivity (PSR sort gate) for the entry QVQLVESGGGLVQAGGSLRLSCAASGTFGYMGWYRQAPGKERELVAAITSRGGGNTYYADSVKGRFTISRDNAKNTVYLQMNSLKPEDTAVYYCAASRVGYHGQTYDYWGQGTQVTVSS : high polyreactivity

Value of measured polyreactivity (PSR sort gate) for the entry QVQLVESGGGLVQAGGSLRLSCAASGSIFVRNAMGWYRQAPGKERELVAAITARGGSTYYADSVKGRFTISRDNAKNTVYLLMHSLKPEDTAVYYCARSYYYRGWAQWRYDYWGQGTQVTVSS : high polyreactivity

Value of measured polyreactivity (PSR sort gate) for the entry QVQLVESGGGLVQAGGSLRLSCAASGSTFLWNAMGWYRQAPAKERELVAAISYSGGSTYYADSVKGRFTISRDNAMNTVYLQKNSLKPEDTAFYYCAKEWFYDPYPPGYDSWGQGPQVTVSS : low polyreactivity

Value of measured polyreactivity (PSR sort gate) for the entry QVHLVESGGGLVQAGGSLRLSCAASGFTLRHNTIGGYRQSPGKERELVAAISIGGRTYYADSVKARFTISRDNAKNTGYLQMNSLKPEDTAVYYCGKLDRGQSPRYDFWGQGTQVSVSS : high polyreactivity

Value of measured polyreactivity (PSR sort gate) for the entry QVQLVESGGGLVQAGGSLRISCAASGSTFAYNAMGWYIQAPGKERELVAVISKGGGRTYYADSVKGRFTISRDNAKNTVYLQINSLKPEDTAVYYCAARYIPVYTREREYNYWGQGTQVTVSS : high polyreactivity

Value of measured polyreactivity (PSR sort gate) for the entry QVQLVESGGGLVQAGGSLRLSCAASGSTFAPYAMGWYRQAPGKERELVASIRSTGSTNYADSVKGRFTISRDNAKNTVYLQMNSLKPEDTAVYYCAARYRRYQYRVKVDYYYWGQGTQVTVSA : high polyreactivity

Value of measured polyreactivity (PSR sort gate) for the entry QVQLVESGGGLVQAGGSLRLSCAASGRIFQRYAMGWYRQAPGKERELVAGITSSGGSTYYADSVKGRFTISRDNAKNTVYLQMNSLKPEDTAVYYCNAGGELRYYGYRAGGTTRSYDYWGQGTQVTVSS : low polyreactivity

====

# MEASUREMENT DESCRIPTION: yeast display, Sf9 membrane polyspecificity reagent, FACS + sequencing; frameworks hold sequencing errors
OBSERVED PROPERTY: polyreactivity (PSR sort gate)

These recorded examples may help you get a feel for the data.
QVQRVESGGGLVQAGGSLRLSSAASGRTSRYAMGWYRQAPGKERELVAAISRSGGSTHNADSVKGRFTISRDNAKNNVYLHMNSLKPEDTAVYSCNAQQGRYWSAKGYDYWGQGTQVTVSS = high polyreactivity
QVQLVESAGGLVQAGGSLRLSCAASGITFKYNAMGWYRQAPGKERELVAAISKGGGSTYYADSVKGRFTISRDNAKNTVYLQMNSLKPEDTAVYYCAARRWYRFDYWGQGTQVTVSS = high polyreactivity
QVQLVESGGGLVQAGGSLRLSCAASGRTFRGYAMGWYRQAPGKERELVAAISSSGGRTYYADSVKGRFTISRDNAKNTVYLQMNSLKPEDTAVYYCAAAVTLSPAQYGYWGQGTQVTVSS = high polyreactivity
QVQLVESGGGLVQAGGSLRLSCAASVRTFYRNAMGWYIQAPGKERELVAAITSGGSTYYADSVKGRFTISRDNAKNTVYLQMNSLKPEDTAVYYCAALRHALRYDYWGQGTQVTVSS = low polyreactivity
QVQLVESGGGLVQAGGSLRLSCAASGSIFDTYVMGWYRQAPGKERELVAVISYSGTRTSYADSVKGRFTISRDNAKNTVYLQMNSLKPEDTAVYYCAARVTYYRTYRGRQYGYWGQGTQVTVSS = high polyreactivity

Value of measured polyreactivity (PSR sort gate) for the entry QVQLVESGGGLVQAGGSLRLSCAASGSTFRINAMGWYRQAPGKERELVADINSGGNTTYADSVKGRFTISRDNAKNTVYFQMNSLKPEDTAVYYCAAAPVFDLWVFLLDYGYDYWGQGTQVTVSS : low polyreactivity

Value of measured polyreactivity (PSR sort gate) for the entry QVQLVESGGGLVQAGGSLRLSCAASGRIFGVNAMGWYRQAPGKEREFVAVISSVGSTYYADSVKGRFTISRDNAKNTVYLQMKSLKPEDTAVYYCNAVVGRWFPYYLSDYWGQGTQVTVSS : low polyreactivity

Value of measured polyreactivity (PSR sort gate) for the entry QVQLVESGGGLVQAGGSLRLSCAASGRTIRYNAMGWYRQAPGKERELVAAITGSGGSTYYADSVKGRFTISRDNAKNTVYLQMNSLKPEDTAVYYCNAVGIWFPIRLIVPYDYWGQGTQVTVSS : low polyreactivity

Value of measured polyreactivity (PSR sort gate) for the entry QVQLVESGGGLVQAGGSLRLSCAASGRTFFVNAMGGYRQAPGKERELVAAITWSGGSTSYADSVKGRFTISRDKAKNNVSLQLNSLKPEDTAVYYCAAEYYSYSHSYYYYGYEYWGQGTQVNVSS : high polyreactivity

Value of measured polyreactivity (PSR sort gate) for the entry QVKLVYSGGGLVQAGGSLRLSCAASVSIFYYYGMGWYRQAPVKERQLVAAITYRGTRTYYADSGKGRFTFSRDNAKTTVYLQMYSLKAEDTALYYCAAERRIYSSDSWGQGTQVTVSS : high polyreactivity

Value of measured polyreactivity (PSR sort gate) for the entry QVQLVESGGGLDQAGGSLRLSSAASGITFYGYDMGWYRQAPGKARELVAAITSDGITNYADSVKGRFTFSRDNAKNTVYLHMNSLKPEDTAVYYCAADLSFYRRYEWYYYWGQGTQVTVSS : low polyreactivity

Value of measured polyreactivity (PSR sort gate) for the entry QVQLVESGGRLVQAGGSLRLSCAASGSIFALYAMGWYRQQPGKVRELVAAIRRGTSTKYADSVKGRFTISRDNAKNTVNLHMKSLKPEDTAVYYCNARYYYCSSISRWSDYWVQGTQVTVSS : high polyreactivity

Value of measured polyreactivity (PSR sort gate) for the entry QLQLVESGGGLVQAGGSLRISCAASGSTFGRNAMGWYRQAPGKERELVAVISKSGGSTYYADSVKGRFTISRDNAKNTVYLQMNSLKPEDTAVYYCAARYYSYWREYQHFDYWGQGTQVTVSS : high polyreactivity

Value of measured polyreactivity (PSR sort gate) for the entry QVQLVESGGGLVQAGGSLRLSCAASGRIFRRYAMGWYRQAPGKERELVAAITRSGGSTYYADSVKGRFTISRDNAKNTVYLQMNSLKPEDTAVYYCNAPSSLGTDYDYWGQGTQVTVSS : high polyreactivity

Each recorded value in this set is attributed to the nanobody polyreactivity screen of Harvey et al. (2022).
